Provide the reported melting point of each item.

Just so you know, measured melting point for CC(C)C[C@H](NC(=O)[C@@H](NC(=O)COc1ccc2c(c1)Nc1ccccc1S2)c1ccccc1)C(=O)N[C@H]1CCOC1O (some centres unmarked) [Example 52] came out at 137 to 138 °C

Just so you know, measured melting point for CC(C)C[C@H](NC(=O)[C@@H](NC(=O)COc1ccc2c(c1)Nc1ccccc1S2)C(C)(C)C)C(=O)N[C@H]1CCOC1O (some centres unmarked) [Example 47] came out at 157 to 159 °C

Just so you know, measured melting point for C[C@H](NC(=O)Cc1ccc2c(c1)Nc1ccccc1S2)C(=O)N[C@@H](CC1CCCCC1)C(=O)N[C@H]1CCOC1O (some centres unmarked) [Example 18] came out at 215 to 217 °C

Just so you know, measured melting point for CC[C@H](NC(=O)COc1ccc2c(c1)Nc1ccccc1S2)C(=O)N[C@@H](CC(C)C)C(=O)N[C@H]1CCOC1OC (some centres unmarked) came out at 164 to 165 °C

Just so you know, measured melting point for CC(C)C[C@H](NC(=O)[C@H](COC(C)(C)C)NC(=O)Cc1ccc2c(c1)Nc1ccccc1S2)C(=O)N[C@H]1CCOC1O (some centres unmarked) [Example 17] came out at 135 to 136 °C

* * *

QUANTITY MEASURED: melting point

Just so you know, measured melting point for COC1OCC[C@@H]1NC(=O)[C@H](CC(C)C)NC(=O)[C@@H]1CCCN1C(=O)c1ccc2c(c1)Nc1ccccc1S2 (stereo partly shown) came out at 243 to 243.5 °C

Just so you know, measured melting point for CC(C)CN(CC(=O)N[C@H]1CCOC1O)C(=O)CNC(=O)COc1ccc2c(c1)Nc1ccccc1S2 (stereo partly shown) came out at 122 to 124 °C

Just so you know, measured melting point for COC1OCC[C@@H]1NC(=O)[C@H](CC(C)C)NC(=O)[C@H](CCCCNC(=O)OCc1ccccc1)NC(=O)c1ccc2c(c1)Nc1ccccc1S2 (stereo partly shown) came out at 102 to 103 °C

Just so you know, measured melting point for C=CC(NC(=O)COc1ccc2c(c1)Nc1ccccc1S2)C(=O)NC(CC(C)C)C(=O)NC1CCOC1O (stereo not shown) came out at 159 to 161 °C

Just so you know, measured melting point for COC1OCC[C@@H]1NC(=O)[C@H](CC(C)C)NC(=O)[C@H](C)NC(=O)COc1ccc2c(c1)Nc1ccccc1S2 (stereo partly shown) came out at 195 to 196 °C

Just so you know, measured melting point for CCC[C@H](NC(=O)COc1ccc2c(c1)Nc1ccccc1S2)C(=O)N[C@@H](CC(C)C)C(=O)N[C@H]1CCOC1O (stereo partly shown) came out at 195 to 196 °C

Just so you know, measured melting point for CC(C)C[C@H](NC(=O)[C@H](NC(=O)COc1ccc2c(c1)Nc1ccccc1S2)C(C)C)C(=O)N[C@H]1CCOC1O (stereo partly shown) came out at 145 to 146 °C

* * *

Provide the reported melting point of each item.

Just so you know, measured melting point for COC1OCC[C@@H]1NC(=O)[C@H](CC(C)C)NC(=O)[C@@H](NC(=O)COc1ccc2c(c1)Nc1ccccc1S2)C(C)(C)C (stereo partly shown) came out at 152 to 153 °C

Just so you know, measured melting point for COC1OCC[C@@H]1NC(=O)[C@H](CC(C)C)NC(=O)[C@@H](NC(=O)COc1ccc2c(c1)Nc1ccccc1S2)[C@@H](C)O (stereo partly shown) came out at 92 to 93 °C

Just so you know, measured melting point for CC[C@H](NC(=O)COc1ccc2c(c1)Nc1ccccc1S2)C(=O)N(C(=O)[C@@H](N)CC(C)C)[C@H]1CCOC1O (stereo partly shown) came out at 160 to 161 °C

Just so you know, measured melting point for O=C(COc1ccc2c(c1)Nc1ccccc1S2)NCC(=O)N[C@@H](CC1CCCCC1)C(=O)N[C@H]1CCOC1O (stereo partly shown) came out at 212 to 215 °C

Just so you know, measured melting point for CC(C)C[C@H](NC(=O)CCNC(=O)COc1ccc2c(c1)Nc1ccccc1S2)C(=O)N[C@H]1CCOC1O (stereo partly shown) came out at 161 to 162 °C

Just so you know, measured melting point for CC(C)C[C@H](NC(=O)[C@H](CO)NC(=O)COc1ccc2c(c1)Nc1ccccc1S2)C(=O)N[C@H]1CCOC1O (stereo partly shown) came out at 128 to 130 °C

Just so you know, measured melting point for COC1OCC[C@@H]1NC(=O)[C@H](CC(C)C)NC(=O)CN(C)C(=O)COc1ccc2c(c1)Nc1ccccc1S2 (stereo partly shown) came out at 92 to 95 °C

Just so you know, measured melting point for CC(C)C[C@H](NC(=O)c1ccc2c(c1)Nc1ccccc1S2)C(=O)N[C@@H](CC(C)C)C(=O)N[C@H]1CCOC1O (stereo partly shown) came out at 144 to 144.5 °C

Just so you know, measured melting point for CCC[C@H](NC(=O)COc1ccc2c(c1)Nc1ccccc1S2)C(=O)N[C@@H](CC(C)C)C(=O)N[C@H]1CCOC1OC (stereo partly shown) came out at 225 to 226 °C

Just so you know, measured melting point for CC(C)C[C@H](NC(=O)CNC(=O)c1ccc2c(c1)Nc1ccccc1S2)C(=O)N[C@H]1CCOC1O (stereo partly shown) came out at 126 to 126.5 °C

Just so you know, measured melting point for CC(C)C[C@H](NC(=O)[C@@H](NC(=O)COc1ccc2c(c1)Nc1ccccc1S2)[C@@H](C)O)C(=O)N[C@H]1CCOC1O (stereo partly shown) came out at 195 to 196 °C

Just so you know, measured melting point for CC(C)C[C@H](NC(=O)C(C)(C)NC(=O)COc1ccc2c(c1)Nc1ccccc1S2)C(=O)N[C@H]1CCOC1O (stereo partly shown) came out at 138 to 140 °C

Just so you know, measured melting point for CC(C)C[C@H](NC(=O)[C@@H]1CCCN1C(=O)c1ccc2c(c1)Nc1ccccc1S2)C(=O)N[C@H]1CCOC1O (stereo partly shown) came out at 144.5 to 145 °C

Just so you know, measured melting point for COC1OCC[C@@H]1NC(=O)[C@H](CC(C)C)NC(=O)[C@@H](NC(=O)COc1ccc2c(c1)Nc1ccccc1S2)C(C)C (stereo partly shown) came out at 240 to 241 °C

Just so you know, measured melting point for CC(C)C[C@H](NC(=O)[C@H](CCCCNC(=O)OCc1ccccc1)NC(=O)c1ccc2c(c1)Nc1ccccc1S2)C(=O)N[C@H]1CCOC1O (stereo partly shown) came out at 109 to 109.5 °C

Just so you know, measured melting point for COC1OCC[C@@H]1NC(=O)[C@H](CC(C)C)NC(=O)CNC(=O)COc1ccc2c(c1)Nc1ccccc1S2 (stereo partly shown) came out at 181 to 182 °C

Just so you know, measured melting point for COC1OCC[C@@H]1N(C(=O)[C@@H](NC(=O)COc1ccc2c(c1)Nc1ccccc1S2)c1ccccc1)C(=O)[C@@H](N)CC(C)C (stereo partly shown) came out at 215 to 217 °C

Just so you know, measured melting point for COC1OCC[C@@H]1NC(=O)[C@H](CC(C)C)NC(=O)C(C)(C)NC(=O)COc1ccc2c(c1)Nc1ccccc1S2 (stereo partly shown) came out at 119 to 120 °C

Just so you know, measured melting point for COC1OCC[C@@H]1NC(=O)[C@H](CC(C)C)NC(=O)[C@H](NC(=O)COc1ccc2c(c1)Nc1ccccc1S2)C(C)C (stereo partly shown) came out at 204 to 206 °C

Just so you know, measured melting point for CC(C)C[C@H](NC(=O)CN(C)C(=O)COc1ccc2c(c1)Nc1ccccc1S2)C(=O)N[C@H]1CCOC1O (stereo partly shown) came out at 137 to 138 °C

Just so you know, measured melting point for CC(C)C[C@H](NC(=O)CNC(=O)COc1ccc2c(c1)Nc1ccccc1S2)C(=O)N[C@H]1CCOC1O (stereo partly shown) came out at 184 to 186 °C

Just so you know, measured melting point for CC(C)C[C@H](NC(=O)COc1ccc2c(c1)Nc1ccccc1S2)C(=O)N[C@@H](CC(C)C)C(=O)N[C@H]1CCOC1O (stereo partly shown) came out at 141.5 to 142 °C

Just so you know, measured melting point for CC(C)C[C@H](NC(=O)[C@@H](NC(=O)COc1ccc2c(c1)Nc1ccccc1S2)C(C)C)C(=O)N[C@H]1CCOC1O (stereo partly shown) came out at 205 to 206 °C

Just so you know, measured melting point for CC(C)C[C@H](NC(=O)Cc1ccc2c(c1)Nc1ccccc1S2)C(=O)N[C@@H](CC(C)C)C(=O)N[C@H]1CCOC1O (stereo partly shown) came out at 168 to 168.5 °C

Just so you know, measured melting point for CC(C)[C@H](NC(=O)CNC(=O)COc1ccc2c(c1)Nc1ccccc1S2)C(=O)N[C@H]1CCOC1O (stereo partly shown) came out at 200 to 201 °C

Just so you know, measured melting point for CC(C)C[C@H](NC(=O)[C@H](C)NC(=O)COc1ccc2c(c1)Nc1ccccc1S2)C(=O)N[C@H]1CCOC1O (stereo partly shown) came out at 144 to 146 °C

Just so you know, measured melting point for COC1OCC[C@@H]1NC(=O)[C@H](CC(C)C)NC(=O)[C@H](CC(C)C)NC(=O)c1ccc2c(c1)Nc1ccccc1S2 (stereo partly shown) came out at 180 to 180.5 °C

Just so you know, measured melting point for NC(=O)[C@H](Cc1ccccc1)N(C(=O)CNC(=O)COc1ccc2c(c1)Nc1ccccc1S2)[C@H]1CCOC1O (stereo partly shown) came out at 207 to 208 °C
